Consider the following molecules; for each one, report its Tmax.
Assay: PK study of SM components in plasma of AIA rats by UPLC-MS/MS (MG vs MPS group)
Conditions: Sprague-Dawley, rat, plasma, po, 39.2 g/kg/day, T max, MPS group: AIA rats, oral PS 9.8 g crude drug/kg/day 21 days, then oral SM 39.2 g crude drug/kg; plasma; mean ± SEM
Give bare numbers, in min.

Solved entries:
{"columns": ["GIVEN SMILES", "MEASUREMENT LABEL", "ENDPOINT RESULT"],
 "data": [
  ["COc1ccc(-c2coc3cc(O)ccc3c2=O)cc1", "Tmax", 15],
  ["O=C(/C=C/c1ccc(O)cc1)c1ccc(O)cc1O", "Tmax", 10],
  ["CC1(C)[C@@H](O)CC[C@]2(C)[C@H]3C(=O)C=C4[C@@H]5C[C@@](C)(C(=O)O)CC[C@]5(C)CC[C@@]4(C)[C@]3(C)CC[C@@H]12", "Tmax", 120]
]}

// below: Tmax requested for another molecule
Lookup: Need Tmax of CC1(C)[C@@H](O[C@H]2O[C@H](C(=O)O)[C@@H](O)[C@H](O)[C@H]2O[C@@H]2O[C@H](C(=O)O)[C@@H](O)[C@H](O)[C@H]2O)CC[C@]2(C)[C@H]3C(=O)C=C4[C@@H]5C[C@@](C)(C(=O)O)CC[C@]5(C)CC[C@@]4(C)[C@]3(C)CC[C@@H]12 , thanks.
Found: 40
